Each recorded value in this set is attributed to PubChem BioAssay.

Biological target: Beta-2 adrenergic receptor (Homo sapiens)
Experiment: beta2AR agonists driving receptor internalization, pilot screen, cell-based, FAP fluorogen, flow cytometry, validation set (AID 504459);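 further: agonist-driven loss of surface beta2AR via internalization measured by FAP dye flow cytometry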
Conditions: Am2.2-beta2AR cells, FAP surface receptor flow cytometry; at 10 µM; stronger effect = higher value
# reported response; entries follow
Record the value in %, omitting the unit from your answer.

> print(dat)
                                   compound  measurement.name  assay.value
1  CC(COc1ccccc1)N(CCCl)Cc1ccccc1 (centres undefined)          response        -7.17
2  CC1CNCCN1S(=O)(=O)c1cccc2cnccc12 (centres undefined)          response        -6.28

So for COc1ccc(CCN2CCC(Nc3nc4ccccc4n3Cc3ccc(F)cc3)CC2)cc1 , the logged response turned out to be 34.8

So for COc1ccc(CN(CCN(C)C)c2ccccn2)cc1 , the logged response turned out to be -10.3

###

Experiment: modulators of CIT2-GFP expression in yeast, confirmation, S. cerevisiae, GFP fusion, cherry picks, mother/daughter gates (AID 2274)
Conditions: S. cerevisiae CIT2-GFP strain, flow cytometry, 3 h; measured here: mother cell gate; at 10 µM; stronger effect = higher value
# reported GFP response, % of DMSO; entries follow
Record the value in %, omitting the unit from your answer.

> print(dat)
                                   compound  assay.value
1  Cc1ccc(N2C(=O)CC(Sc3ncn[nH]3)C2=O)cc1C (centres undefined)         97.3
2  COc1ccc(N2C(=O)CC(Sc3ncn[nH]3)C2=O)c(OC)c1 (centres undefined)          101
3       O=C1c2cccc3cccc(c23)C(=O)N1c1ccncc1          106
4  O=C(O)c1ccccc1SC1CC(=O)N(c2ccc3c(c2)OCO3)C1=O (centres undefined)         94.9
5       O=C(Oc1c(Cl)cc(Cl)c2cccnc12)c1ccco1         93.2

So for CC(=O)[C@@]1(O)CC[C@H]2[C@@H]3CCC4=CC(=O)CC[C@]4(C)[C@H]3CC[C@@]21C , the logged GFP response, % of DMSO turned out to be 101

So for C=CCNC(=S)N/N=C(\C)c1cccc(OC)c1 , the logged GFP response, % of DMSO turned out to be 93.3

So for CCOC(=O)c1cc2c(=O)n3ccccc3nc2n(CCOC)c1=NC(=O)C(C)(C)C , the logged GFP response, % of DMSO turned out to be 93.2

So for O=C(OCc1ccco1)c1ccc(S(=O)(=O)N2CCCCC2)cc1 , the logged GFP response, % of DMSO turned out to be 91.9

###

# reported GFP response, % of DMSO; entries follow
Assay: modulators of CIT2-GFP expression in yeast, confirmation, S. cerevisiae, GFP fusion, cherry picks, mother/daughter gates (AID 2274)
Conditions: S. cerevisiae CIT2-GFP strain, flow cytometry, 3 h; measured here: daughter cell gate; at 10 µM; stronger effect = higher value
Record the value in %, omitting the unit from your answer.

// known answers, use as guide
> print(dat)
                                    compound         measurement.name  assay.value
 1     O=C1C=C(c2ccc(Cl)cc2)C(=O)N1Nc1ccccc1  GFP response, % of DMSO         99.7
 2                Cc1ccccc1CN1CCSc2sccc2C1=O  GFP response, % of DMSO         94.8
 3  Cc1cccn2c(=O)c(/C=C(\C#N)C(=O)NCc3ccccc3)c(N3CCC(C(N)=O)CC3)nc12  GFP response, % of DMSO          103
 4    CCN(CC)c1ccc(/C=C/c2cccc[n+]2C)c(OC)c1  GFP response, % of DMSO          113
 5  Cc1ccnc(N2C(=O)c3cccc4c([N+](=O)[O-])ccc(c34)C2=O)c1  GFP response, % of DMSO          159
 6  Cc1ccc(C2CC(c3cccs3)=NN2S(=O)(=O)c2ccc(C)cc2)cc1 (stereo unspecified)  GFP response, % of DMSO         97.4
 7  CC1=C(C)/C(=N\OS(=O)(=O)c2ccccc2)C=CC1=O  GFP response, % of DMSO          111
 8  CC1=NNC(=O)/C1=C\c1cn(-c2ccccc2)nc1-c1ccccc1  GFP response, % of DMSO         93.7
 9  COc1ccc(NC(=O)/C(C#N)=C/c2ncc([N+](=O)[O-])n2C)c(OC)c1  GFP response, % of DMSO          132
10              Cc1cccc(CN2CCSc3sccc3C2=O)c1  GFP response, % of DMSO          114

So for O=[N+]([O-])c1ccc(N2N=C(c3ccco3)CC2c2ccccc2)cc1 (stereo unspecified) , the logged GFP response, % of DMSO turned out to be 105

So for O=C1C2C3C=CC(CO)(O3)C2C(=O)N1c1ccc(-c2ccccc2)cc1 (stereo unspecified) , the logged GFP response, % of DMSO turned out to be 97.4

So for Cc1[nH][nH]c(=O)c1C(c1ccc(-c2ccc(Cl)c(Cl)c2)o1)c1c(C)[nH][nH]c1=O , the logged GFP response, % of DMSO turned out to be 105

So for CC(=O)Nc1cccc(Oc2ccc(-c3noc(C)n3)cc2)c1 , the logged GFP response, % of DMSO turned out to be 95.6

So for Oc1c(Br)cc(Br)cc1C=Nc1ccc2[nH]ncc2c1 , the logged GFP response, % of DMSO turned out to be 102

So for O=[N+]([O-])c1cc(CN2CCN(c3cccc(C(F)(F)F)c3)CC2)c2cccnc2c1O , the logged GFP response, % of DMSO turned out to be 117

So for Cc1ccc(C(=O)O)cc1N1C(=O)c2cccc3cc(Br)cc(c23)C1=O , the logged GFP response, % of DMSO turned out to be 97.4

So for CCOc1ccc(-c2noc(-c3cccnc3)n2)cc1OC , the logged GFP response, % of DMSO turned out to be 103

So for Cc1ccc(S(=O)(=O)N2CC3CCC2C3)cc1 (stereo unspecified) , the logged GFP response, % of DMSO turned out to be 110

So for CCCOc1ccc(C(=O)NNC(=S)NC(=O)c2ccccc2)cc1 , the logged GFP response, % of DMSO turned out to be 116

So for Cc1c(NC(=O)Nc2ccc3c(c2)OCO3)c(=O)n(-c2ccccc2)n1C , the logged GFP response, % of DMSO turned out to be 100

So for O=C(c1c(F)cccc1F)N1CCN(c2ccccc2F)CC1 , the logged GFP response, % of DMSO turned out to be 106

So for Cc1cc(C(=O)Nc2nc(-c3ccccn3)cs2)ccc1[N+](=O)[O-] , the logged GFP response, % of DMSO turned out to be 110

So for CCCc1[nH]nc2c1C(c1ccc(OC)cc1OC)C(C#N)=C(N)O2 (stereo unspecified) , the logged GFP response, % of DMSO turned out to be 89.9

So for C=CCNC(=O)/C(C#N)=C/c1c(N2CC(C)OC(C)C2)nc2ccccn2c1=O (stereo unspecified) , the logged GFP response, % of DMSO turned out to be 98.1

So for Cc1cc(C)c(C)c(S(=O)(=O)ON2C(=O)c3ccccc3C2=O)c1C , the logged GFP response, % of DMSO turned out to be 113

So for O=C(O)c1ccccc1C(=O)Nc1ccccc1 , the logged GFP response, % of DMSO turned out to be 101
